# Test system: NCI-H23
# Assay protocol: NCI tumour cell line growth inhibition, 48 h
Activity calls are given as the source filed them. No stated cut-off is given here; in the data, active = GI50 up to about 1.1 µM and inactive = higher.
Reported metric: GI50

Compound: COC(=O)c1cc2ccc(OC(C)=O)c(OC(C)=O)c2cn1
Measured target: NCI-H23
Reported metric: GI50
Meas value: 18 µM (inactive)

Compound: CCOC(=O)C1=CCOc2cc(N(C)C)ccc21
Measured target: NCI-H23
Reported metric: GI50
Meas value: > 100 µM (inactive)

Compound: Nc1nc(Cl)cc(Nc2ccc3c(c2)CCC3)n1
Measured target: NCI-H23
Reported metric: GI50
Meas value: > 100 µM (inactive)

Compound: CCC(C)(C)c1ccc(OCCCCNC(=O)c2ccc3ccccc3c2O)c(C(C)(C)CC)c1
Measured target: NCI-H23
Reported metric: GI50
Meas value: 23.7 µM (inactive)

Challenge: Given the compound O=C1C[C@H](c2ccccc2)C2(C(=O)c3ccccc3C2=O)[C@@H](c2ccccc2)C1 , what is its reported GI50?
Response given: 32.5 µM (inactive)

Challenge: Given the compound C[Si](C)(C)CCOCN(C(=O)C1=CCC2(CC1)OCCO2)c1ccccc1I , what is its reported GI50?
Response given: 18.6 µM (inactive)

Challenge: Given the compound Cc1ccc(C(CC(=O)C(C)(C)CN2CCCCC2)SCCS(=O)(=O)O)cc1 (stereo unspecified) , what is its reported GI50?
Response given: 27.9 µM (inactive)

---

# Test system: SW-620
# Assay protocol: NCI tumour cell line growth inhibition, 48 h
Calls of active or inactive are those of the source. Rule as the data show it: active = GI50 up to about 1.1 µM and inactive = higher.
A correct response names exactly one class from YES (active), NO (inactive)

Compound: O=C1C2c3[nH]c4ccccc4c3C3CCCCC3C2C(=O)N1c1ccccc1 (configuration not stated)
Measured target: SW-620
Assigned class: NO

Compound: CCN(CC)CCNc1ccc2ncn3c4ccc(O)cc4c(=O)c1c23
Measured target: SW-620
Assigned class: YES

Compound: O=[N+]([O-])c1ccc2c(c1)N=C1OC(c3c[nH]c4ccc(COc5ccccc5)cc34)C(O)=C1N2 (configuration not stated)
Measured target: SW-620
Assigned class: NO

Compound: O=C(CCN1CCCCC1)N1CCc2c([nH]c3ccccc23)C1c1cccnc1 (configuration not stated)
Measured target: SW-620
Assigned class: NO

Compound: O=C(CCc1ccccc1)ON1C(=S)NC(c2ccccc2)(c2ccccc2)C1=S
Measured target: SW-620
Assigned class: NO

Challenge: Look up the recorded call for CC(C)(C)/N=C\N1CCC(C(c2ccccc2)c2ccccc2)CC1 in this test.
Response given: NO

Challenge: Look up the recorded call for O=P1(Oc2ccccc2)C(c2ccccc2)C(c2ccccc2)=NN1c1ccccc1 (configuration not stated) in this test.
Response given: NO

Challenge: Look up the recorded call for Clc1nc(Cl)c(Cl)c(Cl)n1 in this test.
Response given: NO

---

Listed below: GI50 values for each entry.
# Test system: SF-268
# Assay protocol: NCI tumour cell line growth inhibition, 48 h
Calls of active or inactive are those of the source. No stated cut-off is given here; in the data, active = GI50 up to about 1.1 µM and inactive = higher.

Entry smiles: Cc1c2c(cc3c1C(=O)C(O)=C([C@@H](C)CO)C3=O)C(C)(C)CCC2
Reported metric: GI50
Meas value: 15 µM (inactive)
//
Entry smiles: Oc1[nH]c(Nc2ccc(Cl)c(C(F)(F)F)c2)nc2ncnc1-2
Reported metric: GI50
Meas value: 36.2 µM (inactive)

Challenge: Given the molecule CC(=C/C=C/C=C(C)\C=C\C=C(\C)C(=O)O)/C=C/C=C(/C)C(=O)O , what is its reported GI50?
Response given: > 100 µM (inactive)

Challenge: Given the molecule COc1ccc(N2CC(=O)N(C(=O)COc3ccc(OCC(=O)N4C(=O)CN(c5ccc(OC)cc5)C4=S)cc3)C2=S)cc1 , what is its reported GI50?
Response given: > 100 µM (inactive)

Challenge: Given the molecule Cc1cc(C)c(S(=O)(=O)N2CCN(S(=O)(=O)c3c(C)cc(C)cc3C)OCCCCCO2)c(C)c1 , what is its reported GI50?
Response given: > 100 µM (inactive)

Challenge: Given the molecule CC(C)(C)/N=C\N1CCC(C(c2ccccc2)c2ccccc2)CC1 , what is its reported GI50?
Response given: 49.8 µM (inactive)

Challenge: Given the molecule O=C1/C(=C/c2ccccc2)CCCc2ccccc21 , what is its reported GI50?
Response given: 17.7 µM (inactive)

---

Listed below: GI50 values for each entry.
# Tested on: Malme-3M
# Assay protocol: NCI tumour cell line growth inhibition, 48 h
The source made the active and inactive calls. Rule as the data show it: active = GI50 up to about 1.1 µM and inactive = higher.

Compound: COc1ccc(CC(N)c2ccc(OC)cc2)cc1 (stereo unspecified)
GI50: 37.4 µM (inactive)

Compound: NS(=O)(=O)c1ccc(NC(=O)Cc2nc3ccccc3s2)cc1
GI50: 16 µM (inactive)

Challenge: Given the compound Cc1c2c(cc3c1C(=O)C(O)=C([C@@H](C)CO)C3=O)C(C)(C)CCC2 , what is its reported GI50?
Response given: 22.8 µM (inactive)

Challenge: Given the compound CC(=O)OC1CC2C(C)(C)OC(=O)CC(OC(C)=O)[C@]2(C)C2CCC3(C)C(=CCC3[C@H]3COC(=O)C3)[C@]12C (stereo partly specified) , what is its reported GI50?
Response given: > 100 µM (inactive)

---

Listed below: GI50 values for each entry.
# Tested on: SW-620
# Assay protocol: NCI tumour cell line growth inhibition, 48 h
Active and inactive are the calls of the source. Cut-off read from the data, not from the text of the source: active = GI50 up to about 1.1 µM and inactive = higher.

// solved cases for GI50 follow
Molecule: CC(=O)c1cccc(NC(=O)C(=O)Nn2c(N)nnc2N)c1
Measured target: SW-620
GI50: > 100 µM (inactive)
--
Molecule: CCOC(=O)c1c(NC(=O)c2ccc(Br)cc2)sc2c1CCCC2
Measured target: SW-620
GI50: > 100 µM (inactive)
--
Molecule: CC(C)(C)OC(=O)NCC(c1c[nH]c2ccccc12)c1c[nH]c2ccccc12
Measured target: SW-620
GI50: 17 µM (inactive)
--
Molecule: CC(C)OP(=O)(OC(C)C)/C(=N/Nc1ccccc1[N+](=O)[O-])NCCN/C(=N\Nc1ccccc1[N+](=O)[O-])P(=O)(OC(C)C)OC(C)C
Measured target: SW-620
GI50: 35.5 µM (inactive)
--
Molecule: CC1=CCC(O)C=CC(C)C(O)C(C)C=C(C)C(=O)c2c(O)c(C)cc3c2C(=O)C(N)=C(NC(=O)/C=C\C=C/C=CC(C)C(O)CC1=O)C3=O (configuration not stated)
Measured target: SW-620
GI50: > 100 µM (inactive)
--
Molecule: C=C(C)CNC(=S)N(N)c1ccc(OC)cc1
Measured target: SW-620
GI50: > 100 µM (inactive)

In the following, a different molecule is considered.
Challenge: Given the molecule NS(=O)(=O)c1ccc(NC(=S)N/C=C2\C(=O)Nc3ccccc3C2=O)cc1 , what is its reported GI50?
Response given: > 100 µM (inactive)

---

# Test system: A498
# Assay protocol: NCI tumour cell line growth inhibition, 48 h
Active and inactive are the calls of the source. No stated cut-off is given here; in the data, active = GI50 up to about 1.1 µM and inactive = higher.
Reported metric: GI50

// solved cases for GI50 follow
Molecule: CCCCCCCCCCCCCCC(C)CCC(=O)O (stereo not given)
Meas value: > 100 µM (inactive)

Molecule: CC1=NN(c2nc(N)nc(/C(C#N)=C\c3cccc([N+](=O)[O-])c3)n2)C(C)(C)C1
Meas value: > 23 µM (inactive)

Molecule: CCNc1nc2c(ncn2C2CC(O)C(COP(=O)(O)O)O2)c(=O)[nH]1 (stereo not given)
Meas value: > 100 µM (inactive)

Molecule: CCN(CC)[C@@H]1c2cc3c(cc2C(c2cc(OC)c(O)c(OC)c2)C2C(=O)CO[C@@H]21)OCO3 (stereo not given in full)
Meas value: > 100 µM (inactive)

Molecule: C=CC(OCC)(OCC)OCC
Meas value: > 100 µM (inactive)

Challenge: Given the molecule COC(=O)C1Cc2c(n(C)c3ccccc23)C(c2ccccc2)N1 (stereo not given) , what is its reported GI50?
Response given: 48.4 µM (inactive)

Challenge: Given the molecule O=C(OC1CCC(=C2SCCCS2)[C@H]1C1SCCCS1)c1ccccc1 (stereo not given in full) , what is its reported GI50?
Response given: > 100 µM (inactive)

---

# Test system: OVCAR-3
# Assay protocol: NCI tumour cell line growth inhibition, 48 h
The source made the active and inactive calls. Rule as the data show it: active = GI50 up to about 1.1 µM and inactive = higher.
Reported metric: GI50

// solved cases for GI50 follow
Molecule: CCCCCC(=O)OC[n+]1ccc(-c2c(COC(=O)NC(C)C)c(COC(=O)NC(C)C)c3n2CCC3)cc1
Measured target: OVCAR-3
Reported metric: GI50
Meas value: > 100 µM (inactive)
--
Molecule: COc1ccc(C(=O)O)c2c(=O)c3ccccc3[nH]c12
Measured target: OVCAR-3
Reported metric: GI50
Meas value: > 10 µM (inactive)
--
Molecule: O=c1[nH]c2nc3ccccc3c(=O)n2/c1=C/c1ccc(O)cc1
Measured target: OVCAR-3
Reported metric: GI50
Meas value: 27 µM (inactive)
--
Molecule: COc1nc(N(C)C)nc2c1[n+](C)cn2C
Measured target: OVCAR-3
Reported metric: GI50
Meas value: 47 µM (inactive)
--
Molecule: CCOP(=O)(OCC)C(C)(CC)NC1=NC(C(F)(F)F)(C(F)(F)F)NC(=O)N1 (centres undefined)
Measured target: OVCAR-3
Reported metric: GI50
Meas value: > 100 µM (inactive)

Challenge: Given the molecule CCOC(=O)/C=C/[C@H](O[Si](CC)(CC)CC)C(C)(C)C , what is its reported GI50?
Response given: 52.7 µM (inactive)
